# studyTarget: BTK (Homo sapiens)
# protocolNotes: BTK covalent inhibition kinetics (KI, kinact, kinact/KI)
# Assay type: biochemical
# recordedConditions: Table 4; average of 2 independent determinations (± SD)
pKi: −log10 of the molar value.
Think of 7 as a floor: if pKi stands on it or above, it is yes; beneath it, no.

molecule: C=CC(=O)N1CCCC(NC(=O)c2sc3nccc4c3c2NC(=O)N4c2cnc(OC3CCCC3)cc2C)C1 (stereo not drawn)
answerLabel: yes
//
molecule: C=CC(=O)N1CCCC(NC(=O)c2sc3nccc4c3c2NC(=O)N4c2ccc(Oc3ccccc3)cc2)C1 (stereo not drawn)
answerLabel: yes
//
molecule: C=CC(=O)N1CCCC(NC(=O)c2sc3nccc4c3c2NC(=O)N4c2cnc(Oc3ccccc3)cc2C)C1 (stereo not drawn)
answerLabel: yes
//
molecule: C=CC(=O)N1CCCC(NC(=O)c2sc3nccc4c3c2NC(=O)N4c2ccc(Oc3ccccc3)cn2)C1 (stereo not drawn)
answerLabel: no

Prompt: Please check the record C=CC(=O)N1CCCC(NC(=O)c2sc3nccc4c3c2NC(=O)N4c2ccc(Oc3ccccc3)nc2)C1 (stereo not drawn) and state if its pKi is at or above 7.
Completion: no

Prompt: Given the entry C=CC(=O)N1CCCC(NC(=O)c2sc3nccc4c3c2NC(=O)N4c2cnc(OC(C)C)cc2C)C1 (stereo not drawn) , answer whether its pKi meets or surpasses 7.
Completion: no

---

# protocolNotes: Solubility of P and M forms in solvent systems and their water mixtures
# Format: physicochemical
# recordedConditions: 1-propanol/water (50/50 w/w %), 10 °C, aqueous with cosolvent or surfactant or cyclodextrin, thermodynamic from solid, 1-Propanol/water (50/50 w/w %); 10° C.; read-out: Solubility
resultType: Solubility (µg/mL)
Answers are plain numbers, in µg/mL.

Prompt: Fill in: Solubility of C=CC(=O)N[C@H]1CCC[C@H]1NC(=O)c1sc2nccc3c2c1NC(=O)N3c1cnc(CC(C)C)cc1C (single isomer, unassigned) [P form] is ___
Completion: 8100

---

# studyTarget: BTK (Homo sapiens, UniProt Q06187)
# Sequence (Q06187 whole entry): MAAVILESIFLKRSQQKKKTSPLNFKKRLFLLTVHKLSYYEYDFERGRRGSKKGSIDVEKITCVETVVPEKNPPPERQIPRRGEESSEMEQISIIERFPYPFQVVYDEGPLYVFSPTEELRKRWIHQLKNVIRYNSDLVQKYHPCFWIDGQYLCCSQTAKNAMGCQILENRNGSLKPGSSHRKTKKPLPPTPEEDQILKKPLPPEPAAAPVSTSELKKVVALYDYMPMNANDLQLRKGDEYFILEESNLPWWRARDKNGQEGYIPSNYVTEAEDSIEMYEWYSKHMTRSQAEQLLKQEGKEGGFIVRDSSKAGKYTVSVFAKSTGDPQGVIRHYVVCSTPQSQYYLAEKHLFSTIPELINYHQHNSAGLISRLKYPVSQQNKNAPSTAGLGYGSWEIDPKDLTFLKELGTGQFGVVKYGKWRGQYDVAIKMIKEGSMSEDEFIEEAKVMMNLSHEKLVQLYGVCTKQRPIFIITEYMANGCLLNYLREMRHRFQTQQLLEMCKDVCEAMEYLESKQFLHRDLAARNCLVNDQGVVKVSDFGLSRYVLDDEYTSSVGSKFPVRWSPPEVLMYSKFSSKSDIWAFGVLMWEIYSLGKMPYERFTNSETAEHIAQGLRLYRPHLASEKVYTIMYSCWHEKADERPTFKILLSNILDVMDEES
# protocolNotes: BTK covalent inhibition kinetics (KI, kinact, kinact/KI)
# Type: biochemical
# recordedConditions: Table 3; average of two independent determinations (±SD)
resultType: Ki (nM)
Give bare numbers, in nM.

Prompt: Find the recorded Ki belonging to C=CC(=O)N1CC[C@@H](NC(=O)c2sc3nccc4c3c2NC(=O)N4c2ccc(Oc3ccccc3)cc2C)C1 [Compound A] and report it.
Completion: 28.8

---

# protocolNotes: Epimerization kinetics / rotational energy barrier of atropisomers in solvents
# Type: physicochemical
# recordedConditions: 1-propanol/water 80/20 w/w %, t1/2 at 20° C.
resultType: half-life (days)
One number for each entry, in days.

Prompt: Suppose we examine the compound C=CC(=O)N[C@H]1CCC[C@H]1NC(=O)c1sc2nccc3c2c1NC(=O)N3c1cnc(CC(C)C)cc1C ; what half-life value has been reported?
Completion: 2190

---

# protocolNotes: Solubility of P and M forms in solvent systems and their water mixtures
# Format: physicochemical
# recordedConditions: propylene carbonate, 50 °C, organic solvent or mixture, Propylene carbonate; 50° C.; read-out: Solubility
resultType: Solubility (mg/mL)
Numbers only, in mg/mL.

Prompt: GET /values?readout=Solubility&item= C=CC(=O)N[C@H]1CCC[C@H]1NC(=O)c1sc2nccc3c2c1NC(=O)N3c1cnc(CC(C)C)cc1C (single isomer, unassigned) [P form]
Completion: 97.3

---

# protocolNotes: Solubility of P and M forms in solvent systems and their water mixtures
# Assay type: physicochemical
# recordedConditions: 2-butanol/water (~17/83 w/w %), 50 °C, aqueous with cosolvent or surfactant or cyclodextrin, 2-butanol/water (~17/83 w/w %); 50° C.; read-out: Solubility
resultType: Solubility (mg/mL)
Give bare numbers, in mg/mL.

Prompt: State the recorded Solubility for this entry: C=CC(=O)N[C@H]1CCC[C@H]1NC(=O)c1sc2nccc3c2c1NC(=O)N3c1cnc(CC(C)C)cc1C (single isomer, unassigned) [P form]
Completion: 0.2

---

# protocolNotes: Epimerization kinetics / rotational energy barrier of atropisomers in solvents
# Assay type: physicochemical
# recordedConditions: buffer, t1/2 at 100° C.
resultType: half-life (min)
Numbers only, in min.

Prompt: Requested field: half-life. Item: C=CC(=O)N[C@H]1CCC[C@H]1NC(=O)c1sc2nccc3c2c1NC(=O)N3c1cnc(CC(C)C)cc1C
Completion: 43

---

What kinact/KI was measured for each of the following?
# studyTarget: BTK (Homo sapiens, UniProt Q06187)
# protocolNotes: BTK covalent inhibition kinetics (KI, kinact, kinact/KI)
# Format: biochemical
# recordedConditions: Table 4; read-out: kinact/KI
Answers are plain numbers, in M⁻¹ s⁻¹.

compound: C=CC(=O)N1CCCC(NC(=O)c2sc3nccc4c3c2NC(=O)N4c2cnc(OC3CCCC3)cc2C)C1 (stereo not drawn)
measureUnit: M⁻¹ s⁻¹
number: 13800
--
compound: C=CC(=O)N1CCCC(NC(=O)c2sc3nccc4c3c2NC(=O)N4c2ncc(Oc3ccccc3)cc2C)C1 (stereo not drawn)
measureUnit: M⁻¹ s⁻¹
number: 4770
--
compound: C=CC(=O)N1CCCC(NC(=O)c2sc3nccc4c3c2NC(=O)N4c2ccc(Oc3ccccc3)nc2)C1 (stereo not drawn)
measureUnit: M⁻¹ s⁻¹
number: 786
--
compound: C=CC(=O)N1CCCC(NC(=O)c2sc3nccc4c3c2NC(=O)N4c2cnc(OC(C)C)cc2C)C1 (stereo not drawn)
measureUnit: M⁻¹ s⁻¹
number: 1660
--
compound: C=CC(=O)N1CCCC(NC(=O)c2sc3nccc4c3c2NC(=O)N4c2ccc(Oc3ccccc3)cn2)C1 (stereo not drawn)
measureUnit: M⁻¹ s⁻¹
number: 664

Count: 4. Required value per item: kinact/KI.
1. C=CC(=O)N1CCCC(NC(=O)c2sc3nccc4c3c2NC(=O)N4c2cnc(OC3CCC3)cc2C)C1 (stereo not drawn)
2. C=CC(=O)N1CCCC(NC(=O)c2sc3nccc4c3c2NC(=O)N4c2ccc(Oc3ccccc3)cc2)C1 (stereo not drawn)
3. C=CC(=O)N1CCCC(NC(=O)c2sc3nccc4c3c2NC(=O)N4c2cnc(Oc3ccccc3)cc2C)C1 (stereo not drawn)
4. C=CC(=O)N1CCCC(NC(=O)c2sc3nccc4c3c2NC(=O)N4c2cnc(CC(C)C)cc2C)C1 (stereo not drawn)

Completion:
1: 5000; 2: 13800; 3: 13000; 4: 2220

---

# protocolNotes: Epimerization kinetics / rotational energy barrier of atropisomers in solvents
# Format: physicochemical
# recordedConditions: 1-propanol/water 50/50 w/w %, t1/2 at 20° C.
resultType: half-life (days)
Answers are plain numbers, in days.

Prompt: Given the entry C=CC(=O)N[C@H]1CCC[C@H]1NC(=O)c1sc2nccc3c2c1NC(=O)N3c1cnc(CC(C)C)cc1C , report its measured half-life.
Completion: 2560

---

# protocolNotes: Solubility of P and M forms in solvent systems and their water mixtures
# Format: physicochemical
# recordedConditions: isobutanol/water (~8/92 w/w %), 50 °C, aqueous with cosolvent or surfactant or cyclodextrin, Isobutanol/water (~8/92 w/w %); 50° C.; read-out: Solubility
resultType: Solubility (µg/mL)
One number for each entry, in µg/mL.

Prompt: Fill in the blank: the reported Solubility of C=CC(=O)N[C@H]1CCC[C@H]1NC(=O)c1sc2nccc3c2c1NC(=O)N3c1cnc(CC(C)C)cc1C (single isomer, unassigned) [P form] is ____.
Completion: 100

---

# protocolNotes: Solubility of P and M forms in solvent systems and their water mixtures
# Type: physicochemical
# recordedConditions: isobutanol/water (~8/92 w/w %), 25 °C, aqueous with cosolvent or surfactant or cyclodextrin, Isobutanol/water (~8/92 w/w %); 25° C.; read-out: Solubility
resultType: Solubility
Provide the measurement as a number trailed by its unit.

Prompt: Look up Solubility for this compound: C=CC(=O)N[C@H]1CCC[C@H]1NC(=O)c1sc2nccc3c2c1NC(=O)N3c1cnc(CC(C)C)cc1C (single isomer, unassigned) [P form]
Completion: 100 µg/mL

---

# protocolNotes: Epimerization kinetics / rotational energy barrier of atropisomers in solvents
# Format: physicochemical
# recordedConditions: 1-propanol, t1/2 at 20° C.
resultType: half-life (days)
Numbers only, in days.

Prompt: So what's the measured half-life for this one? C=CC(=O)N[C@H]1CCC[C@H]1NC(=O)c1sc2nccc3c2c1NC(=O)N3c1cnc(CC(C)C)cc1C [Formula (II)]
Completion: 1460

---

# protocolNotes: PPB % free, cyno
# Assay type: in vitro ADME
# recordedConditions: cynomolgus monkey, plasma
resultType: fraction unbound
Give bare numbers.

Prompt: Look up fraction unbound: C=CC(=O)N[C@H]1CCC[C@H]1NC(=O)c1sc2nccc3c2c1NC(=O)N3c1cnc(CC(C)C)cc1C (single isomer, unassigned)
Completion: 0.032

---

# protocolNotes: Epimerization kinetics / rotational energy barrier of atropisomers in solvents
# Format: physicochemical
# recordedConditions: 2-butanol, t1/2 at 20° C.
resultType: half-life (days)
One number for each entry, in days.

Prompt: I have this compound here, C=CC(=O)N[C@H]1CCC[C@H]1NC(=O)c1sc2nccc3c2c1NC(=O)N3c1cnc(CC(C)C)cc1C [Formula (II)] , and I need its recorded half-life.
Completion: 1100
